System: CP297
Assay: qHTS profiling for inhibitors of Plasmodium falciparum proliferation (AID 504749); also: nearly all actives have a fitted effect of over 60% in size
Conditions: P. falciparum in erythrocytes, SYBR Green DNA, 72 h; series mostly up to 28.7 µM
Records with an inconclusive call do not appear. Activity calls are given as the source filed them. Calls follow the shape of the dose curve; as a rule, active = well fitted inhibition curve with a large enough effect; inconclusive = small, poorly fitted or top-dose-only effect; inactive = flat fitted curve, though single readings scatter.
Return exactly one item of active, inactive

Could you kindly confirm the outcome this assay logged for `O=C(O)C[CH2][Ge](=[O])[O][Ge](=[O])[CH2]CC(=O)O` ?
inactive

Could you kindly confirm the outcome this assay logged for CCC(C(=O)C(C)C(O)C(C)CCc1ccc(C)c(O)c1C(=O)O)C1OC(CC)(C2CC[C@@](O)(CC)C(C)O2)CC1C (some centres undefined) ?
active

Could you kindly confirm the outcome this assay logged for `CO/N=C(/C(=O)N[C@@H]1C(=O)N2C(C(=O)O)=C(CSc3nnnn3C)CS[C@H]12)c1csc(N)n1` ?
inactive

Could you kindly confirm the outcome this assay logged for `O=C(O)c1ccc(N[C@@H]2OC[C@@H](O)[C@@H](O)[C@@H]2O)cc1` ?
inactive

###

activity change, negative = inhibition values, listed per item
Test: AP1 Signaling Pathway (AID 357);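 also: ME-180 reporter cells stimulated with EGF at its EC50 level; % is scaled to controls: 0 for no effect and ±100 for the full control effect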
Settings: ME-180 (cervical carcinoma) AP-1-bla reporter, EGF-induced, beta-lactamase ratio, 5 h; at 17.2 µM (top of the series) unless noted
Inconclusive results are not listed. The source made the active and inactive calls. Calls come from the whole dose curve; as a rule, active = well fitted curve in either direction with a large enough effect (not every such curve was filed as active); inconclusive = small, poorly fitted or top-dose-only effect, or another doubt; inactive = flat fitted curve, though single readings scatter.

Field: example entries. Status: answers known.
{"molecule": "c1ccc(-c2nn3c(C4CCCCC4)nnc3s2)cc1", "result": "-19.5% (inactive)"}
{"molecule": "COc1ccc(C2NC3=C(CCC3)C3(C#N)C(OC)(OC)N=C(N)C23C#N)cc1 (stereo not drawn)", "result": "-8.29% (inactive)"}
{"molecule": "Brc1ccc(-c2cnc3n2CCCC3)cc1", "result": "1.22% (inactive)"}
{"molecule": "CCN(CC)CCNc1nc2c(c(=O)[nH]c(=O)n2C)n1CCOc1ccccc1", "result": "-3.03% (inactive)"}
{"molecule": "Cc1cccc(-n2ncc3c(NCCN4CCOCC4)ncnc32)c1", "result": "1.48% (inactive)"}
{"molecule": "COc1cccc(-c2nnc3sc(-c4ccco4)nn23)c1", "result": "-6.59% (inactive)"}

activity change, negative = inhibition for `O=CN1CCN(C(=O)CN2C(=O)c3ccccc3C2=O)CC1` ?
10.2% (inactive)

activity change, negative = inhibition for `COc1ccc(CCNc2nc3c(c(=O)n(C)c(=O)n3C)n2C)cc1OC` ?
-2.56% (inactive)

activity change, negative = inhibition for `Cc1cc(C)cc(-n2c3nc4ccccc4nc3c3c(=O)n(Cc4ccco4)cnc32)c1` ?
8.24% (inactive)

activity change, negative = inhibition for `O=C1C=C(N2CCN(C3=CC(=O)CCC3)CC2)CCC1` ?
20.4% (inactive)

activity change, negative = inhibition for CCCOc1cccc(C2C(C(=O)c3ccc(C)o3)=C(O)C(=O)N2CCCN(C)C)c1 (stereo not drawn) ?
-10.8% (inactive)

activity change, negative = inhibition for `CCCCCCCCCCCCCCCCCCNC(=O)OC[C@@H](COP(=O)([O-])OCC[n+]1ccsc1)OC` ?
1.14% [at 38 µM] (inactive)

activity change, negative = inhibition for `Nn1c(SCC(=O)Nc2ccc3c(c2)OCCO3)nnc1C(F)(F)F` ?
3.25% (inactive)

activity change, negative = inhibition for Cc1cccc(N(CC(O)CN(C)C)S(=O)(=O)c2ccccc2)c1 (stereo not drawn) ?
-9.68% (inactive)
